System: ATP;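 note: ATP exposure 15 min at 22 °C before imaging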
experiment-description: switch fluorescence ratio, 500 uM ATP over buffer (Cy3 cluster intensity, sum of 5 cycles each) (fold (ratio)); higher = stronger signal-on switching upon ATP binding; sequences stand for … in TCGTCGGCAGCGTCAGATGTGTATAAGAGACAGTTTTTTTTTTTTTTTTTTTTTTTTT…TC
condition-label: aptamer strand: ATP DNA aptamer (quencher-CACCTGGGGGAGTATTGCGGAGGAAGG + anchor), 100 nM annealed; ATP concentration: 500 uM
parameter-measured: switch fluorescence ratio

ATTTTCGAGT 1
TGGGGGTAGG 1.01
TTTGCCGCGT 1.03
CTGGGGGCTC 1.01
CTACTATAGG 0.989
GGGGTCGGGG 1.03

Kindly give each listed record's switch fluorescence ratio.
1. AAGGGTGGAG
2. AGGCAACCAC
3. AATTTTGAGG
4. ATATAGAGG
5. TTTAAGACGA

Out:
0.996
1.23
0.984
1.02
1.02
